- assay notes: Cell Viability - LYMP2-017 (AID 972);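 note: cells exposed to compound for 24 hours at 37 °C; nearly all actives have a fitted effect of over 55% in size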
- experimental parameters: LYMP2-017 lymphoblastoid cell viability; series mostly up to 92.2 µM
Records with an inconclusive call do not appear. Activity calls are given as the source filed them. Calls come from the whole dose curve; as a rule, active = well fitted cell-killing curve with a large enough effect; inconclusive = small, poorly fitted or top-dose-only effect; inactive = flat fitted curve, though single readings scatter.
One label from this list, please: active, inactive

Ask: Would you mind telling me which call this test gave c1cc(OCC2CO2)cc(OCC2CO2)c1 (stereo not given) ?
Reply: active

Ask: Tell me the assay call for `Nc1ccccc1C(=O)OCCc1ccccc1` please.
Reply: inactive

Ask: What did this assay record as the result for `CN(C)c1ccc(N=O)cc1` ?
Reply: active

Ask: For `N#CSCSC#N` , what call appears in the results of this test?
Reply: active

Ask: Recorded test call requested for `C#CCO`
Reply: inactive

Ask: # fetch the recorded call for `CCCCCCCCn1sccc1=O` here
Reply: active

Ask: Hey, what did the test say about CC(C)CC(C)Nc1ccc(Nc2ccccc2)cc1 (stereo not given) ?
Reply: active

Ask: What was the test verdict on `N#CC(Cl)Cl` ?
Reply: active

Ask: Give the logged outcome of this assay for the following molecule: `FC(F)(F)c1ccc(Cl)cc1`
Reply: inactive

Ask: Hi, sorry to bother you, what did the test record for `O=[N+]([O-])c1cc(C(F)(F)F)cc([N+](=O)[O-])c1Cl` ?
Reply: active

Ask: Look up the recorded call for `[CH3][Hg][Cl]` in this test.
Reply: active

Ask: Which outcome was entered for the molecule O=C(O)C1C(C(=O)O)C2(Cl)C(Cl)=C(Cl)C1(Cl)C2(Cl)Cl (stereo not given) in this test?
Reply: inactive

Ask: # outcome recorded in this test, key = `CC(=O)[O-].CC(=O)[O-].O.O.[Cd+2]`
Reply: inactive

Ask: Dear all, I need the recorded test outcome for `C[C@@H]1CC[C@@]2(OC1)O[C@H]1[C@@H](O)[C@H]3[C@@H]4CC[C@H]5C[C@@H](O[C@@H]6O[C@H](CO)[C@H](O[C@@H]7O[C@H](CO)[C@@H](O)[C@H](O[C@@H]8OC[C@@H](O)[C@H](O)[C@H]8O)[C@H]7O[C@@H]7O[C@H](CO)[C@@H](O)[C@H](O[C@@H]8O[C@H](CO)[C@@H](O)[C@H](O)[C@H]8O)[C@H]7O)[C@H](O)[C@H]6O)[C@H](O)C[C@]5(C)[C@H]4CC[C@]3(C)[C@H]1[C@@H]2C` , thank you.
Reply: active

Ask: Per the records of this test, what outcome belongs to `Clc1ccc(C(c2ccc(Cl)cc2)C(Cl)Cl)cc1` ?
Reply: inactive
